organism: Homo sapiens; assay: To identify inhibition of the IFN signalling (Jak-Stat) pathway via expression of an eGFP reporter gene under the control of an IFN-stimulated response element (ISRE) containing MxA promoter.; type: functional; parameters: scale not given: direction of the effect not stated beside the values; conditions: 30 µM
This section presents molecules with their documented Percent Effect values.
Use % as the unit, but write only the number.

Use the examples below as a reference point.
molecule="CCCOc1ccc(CNC2CCCc3c2cnn3CC)cc1OC (stereo unspecified)" value_measured=2.78
molecule=CCN1CCN(c2ncc(-c3cc(C)no3)c(-c3ccc(C)s3)n2)CC1 value_measured=-6.45
molecule=Cc1cnn(CCNCc2ccc(C#N)cc2F)c1 value_measured=7.34
molecule=Cc1cc(F)cc(S(=O)(=O)NCCCN2CCC(O)CC2)c1 value_measured=10.8
molecule=Cc1c[nH]c(CN(C)c2nc(C3CCCC3)nc3c2cnn3C)n1 value_measured=-3.43

Prompt: Give the measured Percent Effect for Cc1cnn(C2CN(CC(O)c3ccc4c(c3)OCCO4)C2)c1 (stereo unspecified)
Completion: 10.6

Prompt: Give the measured Percent Effect for `NS(=O)(=O)CCNC(=O)c1nnn(-c2ccc(F)cc2)c1C1CC1`
Completion: -4.31

Prompt: Give the measured Percent Effect for `CCc1nc(CN(C)CC2CCN(CCO)CC2)no1`
Completion: -14.8

Prompt: Give the measured Percent Effect for NCCn1nc(C2CCN(Cc3ccc(Cl)c(Cl)c3)C2)c2nccnc21 (stereo unspecified)
Completion: 7.68

Prompt: Give the measured Percent Effect for O=C(Cn1cnnn1)N1CCCCC1Cn1cccn1 (stereo unspecified)
Completion: 25.2

Prompt: Give the measured Percent Effect for COc1ccc2c(c1)CC(NC(=O)NCc1cccs1)CO2 (stereo unspecified)
Completion: 5.91
